growth for assorted compounds
system: BT-549 breast; assay: NCI-60 one-dose screen, 48 h (100 = growth as untreated, 0 = no growth, -100 = all killed); details: 10 µM unless noted
The panel holds about 83,000 compounds, 20% with a hit somewhere; the sample as a whole holds those more often.
Just the number please, in %, no unit attached.

Observe how each entry below is paired with its result.
compound: CCOC(=O)c1csc(NC(=O)CSc2nc3sc4c(c3c(=O)n2-c2ccc(Cl)cc2)CCCC4)n1
test.target: BT-549 breast
experimental.readout: growth
display.unit: %
value.observed: 99
--
compound: Nc1c(C(=O)c2ccc(Br)cc2)oc2nc(-c3cnccn3)cc(-c3cccs3)c12
test.target: BT-549 breast
experimental.readout: growth
display.unit: %
value.observed: 103
--
compound: N#Cc1c(-c2ccc(Cl)cc2)nc2c(-c3ccccc3)c(Nc3ccccc3)nn2c1N
test.target: BT-549 breast
experimental.readout: growth
display.unit: %
value.observed: 94.4
--
compound: COc1cccc(NC2=CC(=O)C(C)=C(C)C2=O)c1
test.target: BT-549 breast
experimental.readout: growth
display.unit: %
value.observed: 127
--
compound: O=[N+]([O-])c1ccc(O)c2ncccc12
test.target: BT-549 breast
experimental.readout: growth
display.unit: %
value.observed: 61.4
--
compound: O=C1NC(=C(Cl)Cl)/C(=N/S(=O)(=O)N2CCCCC2CC2(C(F)(F)F)N=N2)N1 (stereo not given)
test.target: BT-549 breast
experimental.readout: growth
display.unit: %
value.observed: 68
--
compound: CCN(CC)c1ccc(C=O)c(OCc2cn(CC(=O)Nc3ccc(Cl)cc3)nn2)c1
test.target: BT-549 breast
experimental.readout: growth
display.unit: %
value.observed: 81.4
--
compound: O=C(c1ccc(Cl)cc1)C1[C@H](c2ccc(Cl)cc2)[C@@H](c2ccccc2)NC12C(=O)Nc1ccc(Br)cc12 (stereo not given in full)
test.target: BT-549 breast
experimental.readout: growth
display.unit: %
value.observed: 61.4
--
compound: COC1CCN(Cc2ccc3c(NNC(=O)c4cnccn4)nc4cc(F)ccc4n23)C1 (stereo not given)
test.target: BT-549 breast
experimental.readout: growth
display.unit: %
value.observed: 51.7
--
compound: COC(=O)C(C)NS(=O)(=O)/N=C1\NC(=O)NC1=C(Cl)Cl (stereo not given)
test.target: BT-549 breast
experimental.readout: growth
display.unit: %
value.observed: 109

# evaluate next
Consider the compound OC1CCc2c(-c3ccc4ncnc(N5CCc6cc(F)c(Cl)cc65)c4c3)cncc21 (stereo not given) and give its measured growth. 46.5

* * *

system: BT-549 breast; assay: NCI-60 one-dose screen, 48 h (100 = growth as untreated, 0 = no growth, -100 = all killed); conditions: 10 µM unless noted
About 83,000 compounds went through this panel and 20% of them were active in at least one assay; those are over-represented in the sample as a whole.
Would you mind labelling by growth? At or over 90% is YES, under is NO.

compound: CN1CCN(Cc2ccc(NC(=O)c3cncc(C#Cc4cnc5[nH]ncc5c4)c3)cc2C(F)(F)F)CC1
discrete.label: NO

Reported growth reaches at least 90% for `O=C1c2c(c3c4cc(Br)ccc4[nH]c3c3ccc4ccccc4c23)C(=O)N1CCO` ? YES

Check if growth >= 90% (inclusive). Item: COc1ccccc1/C=C/C=N/NC1=NC2C(S1)N(C)C(=O)N2C (stereo not given) NO

* * *

tested on: U251 CNS; assay: NCI-60 one-dose screen, 48 h; conditions: 10 µM unless noted
The panel holds about 83,000 compounds, 20% with a hit somewhere; the sample as a whole holds those more often. The source made the active and inactive calls. How the source made its calls: active means growth percent below 10; inactive means the rest.
Can you answer with just one of these options? 1.0 for active, 0.0 for inactive

molecule: COc1ccccc1C(=O)CSc1nc(Nc2ccc(S(N)(=O)=O)cc2)c2ccccc2n1
discrete.label: 0.0
//
molecule: COC1CCN(Cc2ccc3c(NNC(=O)c4cnccn4)nc4cc(F)ccc4n23)C1 (stereo not given)
discrete.label: 0.0
//
molecule: N/C(=N\c1nc2c(Cl)cc(Cl)cc2s1)C(Cl)(Cl)Cl
discrete.label: 0.0

Check the results log: what was the call for `OC1CCN(CCCOc2c3ccc(Cl)cc3nc3c2oc2ccc(Cl)cc23)CC1` ? 1.0

Please state the recorded outcome for this molecule: O=C1NC(=C(Cl)Cl)/C(=N/S(=O)(=O)N2CCCCC2CC2(C(F)(F)F)N=N2)N1 (stereo not given) 1.0

* * *

system: NCI/ADR-RES ovarian; assay: NCI-60 one-dose screen, 48 h; settings: 10 µM unless noted
The panel holds about 83,000 compounds, 20% with a hit somewhere; the sample as a whole holds those more often. Calls of active or inactive are those of the source. Rule for the calls: active = growth percent below 10; inactive = the rest.
// one of 1 (active), -1 (inactive), no free text

Field: example entries. Status: answers known.
molecule: COc1cc2nc(-c3ccc(C)cc3)cc(OCCCNCC3CCCO3)c2cc1OC (centres undefined)
test.target: NCI/ADR-RES ovarian
discrete.label: -1
--
molecule: Nc1nc(N)c2c(n1)NC(c1ccc(F)cc1)CC(c1ccc(Nc3nc(NCCO)nc(Nc4ccc(Cl)cc4)n3)cc1)=N2 (centres undefined)
test.target: NCI/ADR-RES ovarian
discrete.label: -1
--
molecule: COc1cccc(-c2nn(-c3ccccc3)cc2-c2ccnc(N3CCN(C(=O)Nc4ccc(F)cc4)CC3)c2)c1
test.target: NCI/ADR-RES ovarian
discrete.label: -1
--
molecule: C=CCSc1ccc2c(c1)C(N1CCNCC1)=Nc1ccccc1O2
test.target: NCI/ADR-RES ovarian
discrete.label: -1

# fetch the recorded call for `O=C(N/N=C/c1cccs1)c1[nH]c2ccc(Br)cc2c1-c1ccccc1` here -1

Assay outcome for `COc1ccc(NC(=O)c2sc3nc(-c4cnccn4)cc(-c4cccs4)c3c2N)cc1` : what was it? -1

I'd appreciate the recorded outcome for `COC(=O)c1ccc(NC(=S)N2CCc3ccc([N+](=O)[O-])cc3C2)cc1O` from this test. -1

Hi team, can someone confirm the assay call for `COc1ccc2[nH]cc(-c3cc(N)n4nc(-c5c[nH]c6ccc(OC)cc56)cc4n3)c2c1` ? -1

Recorded test outcome, item `Cc1nc(-c2cc3ccccc3oc2=O)ccc1C(=O)/C=C/c1ccc(Cl)c(Cl)c1` -1

GET /call?item= `N#Cc1c(-c2ccc(Cl)cc2)nc(SCc2ccccc2)nc1N1CCNCC1` returns the recorded outcome of this test. -1

What classification did `Cc1nc(-c2cc3ccccc3oc2=O)ccc1C(=O)/C=C/c1ccc(N2CCOCC2)cc1` end up with in this test? -1

Look up the recorded call for `CNC(=O)c1cc(-c2ccc(NC(=O)Nc3ccc(N4CCOCC4)c(C(F)(F)F)c3)cc2)nc2cccnc12` in this test. -1

// outcome(item) with item = `O=C(N/N=C/c1ccc([N+](=O)[O-])s1)c1[nH]c2ccc(Br)cc2c1-c1ccccc1` -1

Write down the call the test reported for this molecule. Item: `OC1CCN(CCCOc2c3ccccc3nc3c2oc2ccc(Cl)cc23)CC1` -1

Given `CS(=O)(=O)c1ccc(-c2nc3ccccn3c2C=Nc2ccc(Cl)cc2)cc1` , state the outcome it received in this test. -1

Per the records of this test, what outcome belongs to `O=C1Nc2cc(Cl)ccc2/C1=C\c1ccc(OCc2ccc([N+](=O)[O-])cc2)cc1` ? -1

Any idea what this test logged for `CC(=O)c1ccc(Nc2nc(SC(C)C)nc(-c3ccccc3)c2C#N)cc1` ? -1

How did this test come out for `C/C(=C(/c1ccc(Cl)cc1)c1ccc(OCCN)cc1)c1ccc(C)cc1` ? -1

Per the assay record, what outcome was assigned to `CCOC(=O)c1c(Nc2ccccc2)nn2c(N)c(C#N)c(-c3ccccc3)nc12` ? -1

Check the results log: what was the call for `NC(=O)c1cc(-c2ccc3ncnc(N4CCc5cc(F)c(Cl)cc54)c3c2)cnc1N` ? -1

State the result this test recorded for `O=C(NNc1nc2cc(F)ccc2n2c(CN3CC4(COC4)C3)ccc12)c1cnccn1` . -1

# outcome recorded in this test, key = COc1cc2nc(-c3ccc(Cl)cc3)cc(OCCCNCC3CCCO3)c2cc1OC (centres undefined) -1

Record request — test call for `N#Cc1c(-c2ccc(Cl)cc2)nc2c(-c3ccccc3)c(Nc3ccccc3)nn2c1N` -1

Could you please tell me the result logged for `CC(=O)Oc1ccccc1C(=O)Nc1cc(C(C)C)ccc1C` in this assay? 1

Recorded test outcome, item `COc1ccc(COc2ccc(/C=C3/C(=O)Nc4cc(Cl)ccc43)cc2)cc1` -1

GET /call?item= `Cc1cc2nc3c4cc(Cl)ccc4n(CC(=O)NCCN(C)C)c3nc2cc1C` returns the recorded outcome of this test. -1

Could you kindly confirm the outcome this assay logged for `Cc1c(Nc2nnc(SCC(=O)Nc3sc4c(c3C#N)CCCC4)s2)c(=O)n(-c2ccccc2)n1C` ? -1

In this assay, the call recorded for `Cn1ccnc1C(=O)/C=C/c1ccc(NC(=O)Nc2ccccc2)cc1` was what? -1

Look up the recorded call for `O=C1c2c(c3c4cccnc4[nH]c3c3ccc4ccccc4c23)C(=O)N1CCO` in this test. -1

Each molecule tested received a call. Report the one for `Cc1ccc2ccc3ccc(C)nc3c2n1.Cc1ccc2ccc3ccc(C)nc3c2n1.Oc1c(Cl)cc(Cl)c2ccc(CN3CCCCC3)nc12.[Ru]` . 1

Could you check what this test reported for `Cc1cccc(/C=C/c2nn3c(-c4ccco4)nnc3s2)c1` ? -1

Hi team, can someone confirm the assay call for `COc1cccc(-c2nn(-c3ccccc3)cc2-c2ccnc(N3CCN(C(=O)c4ccccc4)CC3)c2)c1` ? -1
